Reference for the values: the supplement of paper PMC10567573

B1: HSP90AB1 (parent)
chain: TLRQKAEADKNDKAVKDLVVLLFE

Variants of: B1
Assay: protein stability index of a GFP-peptide fusion (GPS, HEK-293T) (PSI 1-6); higher = more stable;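 further: lentivirally expressed fusions sorted by FACS into six bins by GFP to DsRed ratio, PSI derived from sequencing read proportions per bin multiplied by bin number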
Conditions: c terminus: a fixed tail appended
Please use Met whenever protein stability index is not below 3, and Not met whenever it is.

# macromolecule.sequence, classification
measured = [
    ("TLIQKAEADKNDKAVKDLVVLLFE", "Met"),
    ("TLRQKAEADPNDKAVKDLVVLLFE", "Met"),
    ("TLRQKAEADKNDKAVKDLVVLLYE", "Met"),
    ("WLRQKAEADKNDKAVKDLVVLLFE", "Not met"),
    ("TLRQKNEADKNDKAVKDLVVLLFE", "Not met"),
]

q: Check the entry `TLFQKAEADKNDKAVKDLVVLLFE` : does protein stability index equal or exceed 3?
a: Not met

q: Check the entry `TLRQKAEADKNDKAVMDLVVLLFE` : does protein stability index equal or exceed 3?
a: Not met

q: Check the entry `TLRQKAEADKNDKAVCDLVVLLFE` : does protein stability index equal or exceed 3?
a: Not met

q: Check the entry `TLRQKAEADKNDKFVKDLVVLLFE` : does protein stability index equal or exceed 3?
a: Not met

q: Check the entry `TLRQKAEADKGDKAVKDLVVLLFE` : does protein stability index equal or exceed 3?
a: Met

q: Check the entry `TLRQKAEADKNDKAVKDLVVLLFR` : does protein stability index equal or exceed 3?
a: Not met

q: Check the entry `TLRQKAEADKCDKAVKDLVVLLFE` : does protein stability index equal or exceed 3?
a: Not met

q: Check the entry `TLRQKANADKNDKAVKDLVVLLFE` : does protein stability index equal or exceed 3?
a: Not met

q: Check the entry `TLRQKAEADKNDKAVKDQVVLLFE` : does protein stability index equal or exceed 3?
a: Met

q: Check the entry `TLRQKAEADKNDKRVKDLVVLLFE` : does protein stability index equal or exceed 3?
a: Not met

q: Check the entry `TLRQKAEADKLDKAVKDLVVLLFE` : does protein stability index equal or exceed 3?
a: Not met

q: Check the entry `TLRNKAEADKNDKAVKDLVVLLFE` : does protein stability index equal or exceed 3?
a: Not met
